Tested on: Strept. agalactiae L310
Assay Name: MIC by microbroth dilution
Format: cell-based
Settings: 0.01% (w/v) BSA, 10^4 CFU/ml, read after 18-24 h, 37° C., Todd Hewitt broth
Experimental Readout: MIC of the compounds, Strept. agalactiae L310 (µg/mL)
Give bare numbers, in µg/mL.

Reading of MIC of the compounds, Strept. agalactiae L310 for CNC(=O)CC1NC(=O)c2csc(n2)-c2ccc(-c3nc(C4=NC(C(=O)N5CCCC5C(=O)NCCCN(C)C)CO4)cs3)nc2-c2csc(n2)-c2csc(n2)C(C(O)c2ccccc2)NC(=O)CNC(=O)c2nc(sc2COC)C(C(C)C)NC(=O)c2nc1sc2C (mixture of isomers) with Strept. agalactiae L310: 4

MIC of the compounds, Strept. agalactiae L310 value, target or system Strept. agalactiae L310, for CNC(=O)CC1NC(=O)c2csc(n2)-c2ccc(-c3nc(C4=NC(C(=O)N5CCCC5C(=O)N(C)CC(=O)N(C)CCN(C)C)CO4)cs3)nc2-c2csc(n2)-c2csc(n2)C(C(O)c2ccccc2)NC(=O)CNC(=O)c2nc(sc2COC)C(C(C)C)NC(=O)c2nc1sc2C (mixture of isomers) : 8

Observed MIC of the compounds, Strept. agalactiae L310 on Strept. agalactiae L310, entry CNC(=O)CC1NC(=O)c2csc(n2)-c2ccc(-c3nc(C4=NC(C(=O)N5CCCC5C(=O)NC(C)C(=O)N(C)CCN(C)C)CO4)cs3)nc2-c2csc(n2)-c2csc(n2)C(C(O)c2ccccc2)NC(=O)CNC(=O)c2nc(sc2COC)C(C(C)C)NC(=O)c2nc1sc2C (mixture of isomers) , equals 4

Hey, Strept. agalactiae L310 data for CNC(=O)CC1NC(=O)c2csc(n2)-c2ccc(-c3nc(C4=NC(C(=O)N5CCCC5C(=O)N(C)CCN(C)CCN(C)C)CO4)cs3)nc2-c2csc(n2)-c2csc(n2)C(C(O)c2ccccc2)NC(=O)CNC(=O)c2nc(sc2COC)C(C(C)C)NC(=O)c2nc1sc2C (mixture of isomers) : MIC of the compounds, Strept. agalactiae L310 came out at 16

Known value: Strept. agalactiae L310 MIC of the compounds, Strept. agalactiae L310 of the compound CNC(=O)CC1NC(=O)c2csc(n2)-c2ccc(-c3nc(C4=NC(C(=O)N5CCCC5C(=O)NCCN(C)C)CO4)cs3)nc2-c2csc(n2)-c2csc(n2)C(C(O)c2ccccc2)NC(=O)CNC(=O)c2nc(sc2COC)C(C(C)C)NC(=O)c2nc1sc2C (mixture of isomers) equals 4

For each of the compounds below, note its MIC of the compounds, Strept. agalactiae L310.
1. CNC(=O)CC1NC(=O)c2csc(n2)-c2ccc(-c3nc(C4=NC(C(=O)N5CCCC5C(=O)NCCN(C(C)C)C(C)C)CO4)cs3)nc2-c2csc(n2)-c2csc(n2)C(C(O)c2ccccc2)NC(=O)CNC(=O)c2nc(sc2COC)C(C(C)C)NC(=O)c2nc1sc2C (mixture of isomers)
2. CNC(=O)CC1NC(=O)c2csc(n2)-c2ccc(-c3nc(C4=NC(C(=O)N5CCCC5C(=O)N5CCCC5CN(C)CCN(C)C)CO4)cs3)nc2-c2csc(n2)-c2csc(n2)C(C(O)c2ccccc2)NC(=O)CNC(=O)c2nc(sc2COC)C(C(C)C)NC(=O)c2nc1sc2C (mixture of isomers)
3. CNC(=O)CC1NC(=O)c2csc(n2)-c2ccc(-c3nc(C4=NC(C(=O)N5CCCC5C(=O)N(C)CCN5CCN(C)CC5)CO4)cs3)nc2-c2csc(n2)-c2csc(n2)C(C(O)c2ccccc2)NC(=O)CNC(=O)c2nc(sc2COC)C(C(C)C)NC(=O)c2nc1sc2C (mixture of isomers)
4. CNC(=O)CC1NC(=O)c2csc(n2)-c2ccc(-c3nc(C4=NC(C(=O)N5CCCC5C(=O)N5CCN(CCCN(C)C)CC5)CO4)cs3)nc2-c2csc(n2)-c2csc(n2)C(C(O)c2ccccc2)NC(=O)CNC(=O)c2nc(sc2COC)C(C(C)C)NC(=O)c2nc1sc2C (mixture of isomers)
5. CCN(CCN(C)C)C(=O)C1CCCN1C(=O)C1COC(c2csc(-c3ccc4c(n3)-c3csc(n3)-c3csc(n3)C(C(O)c3ccccc3)NC(=O)CNC(=O)c3nc(sc3COC)C(C(C)C)NC(=O)c3nc(sc3C)C(CC(=O)NC)NC(=O)c3csc-4n3)n2)=N1 (mixture of isomers)
6. CNC(=O)CC1NC(=O)c2csc(n2)-c2ccc(-c3nc(C4=NC(C(=O)N5CCCC5C(=O)N5CCN(CCN6CCOCC6)CC5)CO4)cs3)nc2-c2csc(n2)-c2csc(n2)C(C(O)c2ccccc2)NC(=O)CNC(=O)c2nc(sc2COC)C(C(C)C)NC(=O)c2nc1sc2C (mixture of isomers)
7. CCN(CC)CCN(CC)C(=O)C1CCCN1C(=O)C1COC(c2csc(-c3ccc4c(n3)-c3csc(n3)-c3csc(n3)C(C(O)c3ccccc3)NC(=O)CNC(=O)c3nc(sc3COC)C(C(C)C)NC(=O)c3nc(sc3C)C(CC(=O)NC)NC(=O)c3csc-4n3)n2)=N1 (mixture of isomers)

## Output
1. 4
2. 8
3. 8
4. 8
5. 8
6. 16
7. 8

Dear colleague, could you please provide MIC of the compounds, Strept. agalactiae L310 for the compounds listed below?
1. CCN(CC)CCNC(=O)C1CCCN1C(=O)C1COC(c2csc(-c3ccc4c(n3)-c3csc(n3)-c3csc(n3)C(C(O)c3ccccc3)NC(=O)CNC(=O)c3nc(sc3COC)C(C(C)C)NC(=O)c3nc(sc3C)C(CC(=O)NC)NC(=O)c3csc-4n3)n2)=N1 (centres unmarked)
2. CNC(=O)CC1NC(=O)c2csc(n2)-c2ccc(-c3nc(C4=NC(C(=O)N5CCCC5C(=O)N(C)CCN5CCN(CCO)CC5)CO4)cs3)nc2-c2csc(n2)-c2csc(n2)C(C(O)c2ccccc2)NC(=O)CNC(=O)c2nc(sc2COC)C(C(C)C)NC(=O)c2nc1sc2C (mixture of isomers)

## Output
1: 0.5; 2: 8
